test target: RSV F protein of RS virus subtype B strains (2007-2 and Z)
measurement description: cell-based or functional assay
IC50 values (ng/ml), RS virus neutralization, HEp2 cells, subtype B values for the binders below.
quantity name: IC50 values (ng/ml), RS virus neutralization, HEp2 cells, subtype B (ng/mL)

{"binder": "recombinant purified D25 (rD25), expressed in 293T cells (antibody, V domains shown) VH: QVQLVQSGAEVKKPGSSVMVSCQASGGPLRNYIINWLRQAPGQGPEWMGGIIPVLGTVHYAPKFQGRVTITADESTDTAYIHLISLRSEDTAMYYCATETALVVSTTYLPHYFDNWGQGTLVTVSS VL: DIQMTQSPSSLSAAVGDRVTITCQASQDIVNYLNWYQQKPGKAPKLLIYVASNLETGVPSRFSGSGSGTDFSLTISSLQPEDVATYYCQQYDNLPLTFGGGTKVEIKRTV", "readout value": 1.9}
{"binder": "AM14 (antibody, V domains shown) VH: EVQLVESGGGVVQPGRSLRLSCAASGFSFSHYAMHWVRQAPGKGLEWVAVISYDGENTYYADSVKGRFSISRDNSKNTVSLQMNSLRPEDTALYYCARDRIVDDYYYYGMDVWGQGATVTVSS VL: DIQMTQSPSSLSASVGDRVTITCQASQDIKKYLNWYHQKPGKVPELLMHDASNLETGVPSRFSGRGSGTDFTLTISSLQPEDIGTYYCQQYDNLPPLTFGGGTKVEIKRTV", "readout value": 6.7}

meta.source: patent US20160244509A1
